System: HOP62
Assay: In vitro cytotoxicity, expanded lung cancer panel
Type: cell-based
Conditions: Homo sapiens, HOP-62
pIC50: −log10 of the molar value.

| compound | system_under_test | pIC50 |
| --- | --- | --- |
| COc1ccc(CC(=O)OCC2=CCC3[C@](C)(CO)[C@H](O)CC[C@@]3(C)[C@@H]2/C=C/C2=CCOC2=O)cc1 (stereo partly shown) [Compound 9s] | HOP62 | 4.89 |

----------
Tested on: A549 (lung carcinoma)
Experiment: MTT assay, cytotoxicity/growth inhibition
Type: cell-based, human
Conditions: A549, 20 μM concentration, MTT, 48 h; 20 µM
measurement_type: Cytotoxic Activity (% Growth Inhibition) (%)

| compound | measurement_type | data_value |
| --- | --- | --- |
| C[C@@]12COC(c3ccccc3)O[C@@H]1CC[C@]1(C)C2CC=C(COC(=O)c2cccc(C(F)(F)F)c2)[C@H]1/C=C/C1=CCOC1=O (some centres unmarked) | Cytotoxic Activity (% Growth Inhibition) | 69.48 |
| C=C1CC[C@@H]2[C@](C)(CO)[C@H](O)CC[C@@]2(C)[C@@H]1C/C=C1/C(=O)OC[C@H]1O [Compound 1, Andrographolide, reference compound] | Cytotoxic Activity (% Growth Inhibition) | 21.64 |
| COc1cccc(C(=O)OCC2=CCC3[C@]4(C)COC(c5ccccc5)O[C@@H]4CC[C@@]3(C)[C@@H]2/C=C/C2=CCOC2=O)c1 (some centres unmarked) | Cytotoxic Activity (% Growth Inhibition) | 48.88 |
| C[C@@]12COC(c3ccccc3)O[C@@H]1CC[C@]1(C)C2CC=C(COC(=O)c2ccccc2)[C@H]1/C=C/C1=CCOC1=O (some centres unmarked) | Cytotoxic Activity (% Growth Inhibition) | 72.82 |
| COc1ccc(C(=O)OCC2=CCC3[C@]4(C)COC(c5ccccc5)O[C@@H]4CC[C@@]3(C)[C@@H]2/C=C/C2=CCOC2=O)cc1Cl (some centres unmarked) | Cytotoxic Activity (% Growth Inhibition) | 61.6 |

----------
System: PC-3 (prostate carcinoma)
Test: MTT assay, cytotoxicity/growth inhibition
Format: cell-based
Settings: Homo sapiens, 48 h, read-out: Cytotoxic Activity (% Growth Inhibition)

| molecule | inhibition at 20 µM, % |
| --- | --- |
| COc1ccc(C(=O)OCC2=CCC3[C@]4(C)COC(c5ccccc5)O[C@@H]4CC[C@@]3(C)[C@@H]2/C=C/C2=CCOC2=O)cc1Cl (stereo partly shown) | 62 |
| CCCCCCCC(=O)OCC1=CCC2[C@](C)(CO)[C@H](O)CC[C@@]2(C)[C@@H]1/C=C/C1=CCOC1=O (stereo partly shown) | 67 |
| Cc1ccc(CC(=O)OCC2=CCC3[C@]4(C)COC(c5ccccc5)O[C@@H]4CC[C@@]3(C)[C@@H]2/C=C/C2=CCOC2=O)cc1 (stereo partly shown) | 69.5 |
| C[C@]1(CO)C2CC=C(COC(=O)c3ccccc3C(F)(F)F)[C@@H](/C=C/C3=CCOC3=O)[C@]2(C)CC[C@H]1O (stereo partly shown) | 72.2 |

----------
Tested on: PC-3 (prostate carcinoma)
Assay: MTT assay, cytotoxicity/growth inhibition
Format: cell-based
Settings: Homo sapiens, 48 h, read-out: Cytotoxic Activity (% Growth Inhibition)
measurement_type: inhibition at 20 µM (%)

| compound | data_value |
| --- | --- |
| COc1cc(C(=O)OCC2=CCC3[C@]4(C)COC(c5ccccc5)O[C@@H]4CC[C@@]3(C)[C@@H]2/C=C/C2=CCOC2=O)cc(OC)c1OC (stereo partly shown) | 5.6 |
| C[C@@]12COC(c3ccccc3)O[C@@H]1CC[C@]1(C)C2CC=C(COC(=O)c2ccccc2)[C@H]1/C=C/C1=CCOC1=O (stereo partly shown) | 0 |
| Cc1cccc(C(=O)OCC2=CCC3[C@]4(C)COC(c5ccccc5)O[C@@H]4CC[C@@]3(C)[C@@H]2/C=C/C2=CCOC2=O)c1 (stereo partly shown) | 0 |
| CCCCCCCCCC(=O)OCC1=CCC2[C@]3(C)COC(c4ccccc4)O[C@@H]3CC[C@@]2(C)[C@@H]1/C=C/C1=CCOC1=O (stereo partly shown) | 39 |
| COc1cccc(C(=O)OCC2=CCC3[C@]4(C)COC(c5ccccc5)O[C@@H]4CC[C@@]3(C)[C@@H]2/C=C/C2=CCOC2=O)c1 (stereo partly shown) | 0 |
| C[C@@]12COC(c3ccccc3)O[C@@H]1CC[C@]1(C)C2CC=C(COC(=O)Cc2ccc(Cl)cc2)[C@H]1/C=C/C1=CCOC1=O (stereo partly shown) | 39 |
| Cc1cccc(C(=O)OCC2=CCC3[C@](C)(CO)[C@H](O)CC[C@@]3(C)[C@@H]2/C=C/C2=CCOC2=O)c1 (stereo partly shown) | 0 |
